Catalogue of level of expressed mRNA in the presence/in the absence of chemical substance readings, one per entry.
- Tested on: Metabolism protein genes
- assay_summary: DNA chip mRNA expression in yeast, metabolism protein genes (Table 7)
- Type: cell-based, Saccharomyces cerevisiae S288C
- test_context: yeast gene YOL108C

| compound | recorded_measurement |
| --- | --- |
| [Cl][Hg][Cl] [(3), HgCl2] | 0.4 |
| O=[N+]([O-])c1cc[n+]([O-])c2ccccc12 [(5), 4-nitroquinolin-N-oxide] | 2.1 |
| CN(C)C(=S)SSC(=S)N(C)C [(10), Tetramethylthiuram disulfide] | 0.9 |
| CCCCCCCCCCCCc1ccc(S(=O)(=O)[O-])cc1.[Na+] [(17), sodium dodecylbenzosulfonate] | 1.5 |

In the following, a different compound is considered.
Exam item: Please look up its level of expressed mRNA in the presence/in the absence of chemical substance: COc1cc(CNC(=O)CCCCC=CC(C)C)ccc1O [(12), 8-methyl-N-vanillyl-6-nonenamide]
Marked response: 1.0

* * *

- Tested on: Metabolism protein genes
- assay_summary: DNA chip mRNA expression in yeast, metabolism protein genes (Table 7)
- Format: cell-based, Saccharomyces cerevisiae S288C
- test_context: yeast gene YCR010C
- Method: Yeast (Saccharomyces cerevisiae S288C (α SUC2mal mel gap2 CUP1)) were incubated at 25° C. on YPD medium (yeast extract 1%, polypepton 2%, glucose 2%). One of toxic chemical substances was added to the cells at logarithmic growth phase, and the cells were further incubated for two hours. Cells were cultured without any chemical substance in the same condition, and were used as control. Concentrations of the chemical substances were defined to inhibit the growth of the yeast but not lead to death. […]
reported_metric: level of expressed mRNA in the presence/in the absence of chemical substance

Exam item: Please look up its level of expressed mRNA in the presence/in the absence of chemical substance: N#Cc1c(Cl)c(Cl)c(Cl)c(C#N)c1Cl [(9)]
Marked response: 0.9

Exam item: Please look up its level of expressed mRNA in the presence/in the absence of chemical substance: COc1cc(CNC(=O)CCCCC=CC(C)C)ccc1O [(12), 8-methyl-N-vanillyl-6-nonenamide]
Marked response: 0.8

Exam item: Please look up its level of expressed mRNA in the presence/in the absence of chemical substance: CCCCCCCCCCCCc1ccc(S(=O)(=O)[O-])cc1.[Na+] [(17), sodium dodecylbenzosulfonate]
Marked response: 1.9

Exam item: Please look up its level of expressed mRNA in the presence/in the absence of chemical substance: C=CC=O [(14), acrolein]
Marked response: 1.2

Exam item: Please look up its level of expressed mRNA in the presence/in the absence of chemical substance: Oc1cc(Cl)c(Cl)cc1Cl [(6), 2,4,5-trichlorophenol]
Marked response: 1.3

Exam item: Please look up its level of expressed mRNA in the presence/in the absence of chemical substance: S=C([S-])NCCNC(=S)[S-].[Zn+2] [(11), zinc N,N′-ethylenebis(dithiocarbamate)]
Marked response: 1.1

* * *

- Tested on: Metabolism protein genes
- assay_summary: DNA chip mRNA expression in yeast, metabolism protein genes (Table 7)
- Format: cell-based, Saccharomyces cerevisiae S288C
- test_context: yeast gene YMR011W
reported_metric: level of expressed mRNA in the presence/in the absence of chemical substance
Enter a number only.

Field: example entries. Status: answers known.
| compound | recorded_measurement |
| --- | --- |
| COc1cc(CNC(=O)CCCCC=CC(C)C)ccc1O [(12), 8-methyl-N-vanillyl-6-nonenamide] | 0.8 |
| [Cl][Hg][Cl] | 9.4 |
| C=CC=O | 0.6 |

In the following, a different compound is considered.
Exam item: Please look up its level of expressed mRNA in the presence/in the absence of chemical substance: `CCCCC[C@H](O)CC(=O)CCc1ccc(O)c(OC)c1`
Marked response: 0.4

* * *

- System: Metabolism protein genes
- assay_summary: DNA chip mRNA expression in yeast, metabolism protein genes (Table 7)
- Type: cell-based, Saccharomyces cerevisiae S288C
- test_context: yeast gene YLR304C
reported_metric: level of expressed mRNA in the presence/in the absence of chemical substance

Field: example entries. Status: answers known.
| compound | recorded_measurement |
| --- | --- |
| N#Cc1c(Cl)c(Cl)c(Cl)c(C#N)c1Cl | 0.1 |
| [Cl][Cd][Cl] | 0.6 |
| O=[N+]([O-])c1cc[n+]([O-])c2ccccc12 [(5), 4-nitroquinolin-N-oxide] | 0.6 |

In the following, a different compound is considered.
Exam item: Please look up its level of expressed mRNA in the presence/in the absence of chemical substance: `CCCCC[C@H](O)CC(=O)CCc1ccc(O)c(OC)c1`
Marked response: 0.5

* * *

Catalogue of level of expressed mRNA in the presence/in the absence of chemical substance readings, one per entry.
- System: Metabolism protein genes
- assay_summary: DNA chip mRNA expression in yeast, metabolism protein genes (Table 7)
- Type: cell-based, Saccharomyces cerevisiae S288C
- test_context: yeast gene YPR113W
Enter a number only.

Field: example entries. Status: answers known.
| molecule | target_or_system | recorded_measurement |
| --- | --- | --- |
| [Cl][Cd][Cl] | Metabolism protein genes | 0.8 |
| N#Cc1c(Cl)c(Cl)c(Cl)c(C#N)c1Cl | Metabolism protein genes | 0.4 |
| COc1cc(CNC(=O)CCCCC=CC(C)C)ccc1O [(12), 8-methyl-N-vanillyl-6-nonenamide] | Metabolism protein genes | 0.7 |

In the following, a different molecule is considered.
Exam item: Please look up its level of expressed mRNA in the presence/in the absence of chemical substance: O=[N+]([O-])c1cc[n+]([O-])c2ccccc12 [(5), 4-nitroquinolin-N-oxide]
Marked response: 2.0

* * *

- System: Metabolism protein genes
- assay_summary: DNA chip mRNA expression in yeast, metabolism protein genes (Table 7)
- Format: cell-based, Saccharomyces cerevisiae S288C
- test_context: yeast gene YOR002W
reported_metric: level of expressed mRNA in the presence/in the absence of chemical substance
Enter a number only.

| molecule | target_or_system | recorded_measurement |
| --- | --- | --- |
| CN(C)C(=S)SSC(=S)N(C)C [(10), Tetramethylthiuram disulfide] | Metabolism protein genes | 0.9 |
| COc1cc(CNC(=O)CCCCC=CC(C)C)ccc1O [(12), 8-methyl-N-vanillyl-6-nonenamide] | Metabolism protein genes | 0.5 |
| CCCCCCCCCCCCc1ccc(S(=O)(=O)[O-])cc1.[Na+] [(17), sodium dodecylbenzosulfonate] | Metabolism protein genes | 0.9 |

Exam item: Provide value of level of expressed mRNA in the presence/in the absence of chemical substance for this record tested with Metabolism protein genes: `[Cl][Cd][Cl]`
Marked response: 1.1

Exam item: Provide value of level of expressed mRNA in the presence/in the absence of chemical substance for this record tested with Metabolism protein genes: S=C([S-])NCCNC(=S)[S-].[Zn+2] [(11), zinc N,N′-ethylenebis(dithiocarbamate)]
Marked response: 1.2

* * *

- System: Metabolism protein genes
- assay_summary: DNA chip mRNA expression in yeast, metabolism protein genes (Table 7)
- Format: cell-based, Saccharomyces cerevisiae S288C
- test_context: yeast gene YLR372W
reported_metric: level of expressed mRNA in the presence/in the absence of chemical substance
Enter a number only.

| molecule | recorded_measurement |
| --- | --- |
| CCCCCCCCCCCCOS(=O)(=O)[O-].[Na+] [(18), sodium lauryl sulfate] | 0.6 |
| Cl[C@H]1[C@H](Cl)[C@@H](Cl)[C@@H](Cl)[C@H](Cl)[C@H]1Cl | 0.2 |
| CCCCC[C@H](O)CC(=O)CCc1ccc(O)c(OC)c1 | 0.1 |

Exam item: Provide value of level of expressed mRNA in the presence/in the absence of chemical substance for this record tested with Metabolism protein genes: `Oc1cc(Cl)c(Cl)cc1Cl`
Marked response: 0.5

Exam item: Provide value of level of expressed mRNA in the presence/in the absence of chemical substance for this record tested with Metabolism protein genes: O=[N+]([O-])c1cc[n+]([O-])c2ccccc12 [(5), 4-nitroquinolin-N-oxide]
Marked response: 1.4

Exam item: Provide value of level of expressed mRNA in the presence/in the absence of chemical substance for this record tested with Metabolism protein genes: `[Cl][Cd][Cl]`
Marked response: 0.3

* * *

- Tested on: Metabolism protein genes
- assay_summary: DNA chip mRNA expression in yeast, metabolism protein genes (Table 7)
- Format: cell-based, Saccharomyces cerevisiae S288C
- test_context: yeast gene YGR096W
reported_metric: level of expressed mRNA in the presence/in the absence of chemical substance
Enter a number only.

Field: example entries. Status: answers known.
| molecule | target_or_system | recorded_measurement |
| --- | --- | --- |
| [Cl][Cd][Cl] [(2), CdCl2] | Metabolism protein genes | 1.0 |
| CN(C)C(=S)SSC(=S)N(C)C [(10), Tetramethylthiuram disulfide] | Metabolism protein genes | 0.8 |
| [Cl][Pb][Cl] [(4), PbCl2] | Metabolism protein genes | 4.6 |
| CCCCCCCCCCCCc1ccc(S(=O)(=O)[O-])cc1.[Na+] [(17), sodium dodecylbenzosulfonate] | Metabolism protein genes | 0.8 |
| C[S+](C)[O-] [(15), dimethylsulfoxide] | Metabolism protein genes | 0.9 |

Exam item: Please look up its level of expressed mRNA in the presence/in the absence of chemical substance: Cl[C@H]1[C@H](Cl)[C@@H](Cl)[C@@H](Cl)[C@H](Cl)[C@H]1Cl [(7), γ-hexachlorocyclohexane]
Marked response: 0.9
